# target_entity: T1, Pab1 (Schizosaccharomyces pombe, UniProt P31209 80-653)
# T1 sequence: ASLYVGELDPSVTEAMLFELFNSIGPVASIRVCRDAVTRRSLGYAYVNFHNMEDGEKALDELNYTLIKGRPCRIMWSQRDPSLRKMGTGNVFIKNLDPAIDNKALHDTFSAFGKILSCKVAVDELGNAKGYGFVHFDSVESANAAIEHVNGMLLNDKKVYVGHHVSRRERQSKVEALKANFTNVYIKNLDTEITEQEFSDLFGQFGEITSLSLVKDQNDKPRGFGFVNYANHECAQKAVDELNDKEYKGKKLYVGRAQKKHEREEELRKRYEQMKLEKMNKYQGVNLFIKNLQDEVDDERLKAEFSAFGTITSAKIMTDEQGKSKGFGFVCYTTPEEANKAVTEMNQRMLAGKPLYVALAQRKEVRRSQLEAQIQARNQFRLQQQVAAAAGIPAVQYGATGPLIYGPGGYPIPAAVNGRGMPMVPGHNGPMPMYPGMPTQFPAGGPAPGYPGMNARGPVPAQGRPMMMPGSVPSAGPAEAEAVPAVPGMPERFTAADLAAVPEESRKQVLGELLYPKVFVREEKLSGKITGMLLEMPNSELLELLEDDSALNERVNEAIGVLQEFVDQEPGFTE
# assay_explanation: fluorescence polarization; FP: 20 mM HEPES pH 7.4, 150 mM NaCl, 22 C, 2 h, 0.2 nM RNA; switchSENSE: same buffer + 0.001% Tween-20, 25 nM Pab1, 20 C; EMSA: 20 mM PIPES pH 6.8, 10 mM KCl, 90 mM NaCl, 2 mM Mg(OAc)2, 0.1 mM TCEP, 22 C, 200 nM RNA
# condition_summary: protein: recombinant; tags: N-terminal GST cleaved with 3C protease; label: 5' 6-FAM
pKd: −log10 of the molar value.
Kindly supply the reported pKd values for the records listed here.

{"binder": "AAAAAAAAAAAAAAAAAAAAAA (ssRNA) [A22]", "result": "~9.30"}

Now turn to the next binder.
Briefly, pKd measured for AAAAAAAAAAAA (ssRNA) [A12] : ~7.57
